target: UniProt Q9BY41; test: In vitro HDAC8 deacetylase inhibition assay

{"compound": "CCCCCCNNC(=O)c1ccc(CNC(=O)CN2CCC(c3ccc(NC(C)=O)cc3)CC2)cc1 [Compound 32]", "measurement.target": "UniProt Q9BY41", "IC50 (µM)": 16.6}

====

biological target: HDAC8 (Homo sapiens); test: In vitro HDAC8 deacetylase inhibition assay; details: read-out: HDAC8 IC50; recombinant enzyme, Boc-Lys(TFA)-AMC

{"cpd.smiles": "CCCCCCNNC(=O)c1ccc(CNC(C)=O)cc1", "IC50": "600 nM"}

====

molecules and their reported inhibition at 0.1 µM
Biological target: HDAC8 (Homo sapiens, UniProt Q9BY41)
Sequence (Q9BY41 1-377): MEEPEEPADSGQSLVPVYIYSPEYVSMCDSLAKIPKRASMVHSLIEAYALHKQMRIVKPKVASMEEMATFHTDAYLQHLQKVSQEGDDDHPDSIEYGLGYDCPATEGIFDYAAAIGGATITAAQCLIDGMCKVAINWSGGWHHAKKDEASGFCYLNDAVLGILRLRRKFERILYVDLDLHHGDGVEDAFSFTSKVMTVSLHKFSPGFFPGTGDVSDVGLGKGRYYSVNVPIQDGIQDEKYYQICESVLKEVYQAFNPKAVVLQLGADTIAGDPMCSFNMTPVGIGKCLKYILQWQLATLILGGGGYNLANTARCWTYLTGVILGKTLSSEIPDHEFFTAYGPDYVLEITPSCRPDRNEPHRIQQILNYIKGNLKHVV
Test: HDAC8 degradation in Jurkat cells, Western blot
Conditions: Jurkat, 6 h, read-out: Degradation (%) at 100 nM (HDAC8)

{"molecule": "CCCCCCNNC(=O)c1ccc(CNC(=O)CCCCCCCCC(=O)N[C@H](C(=O)N2C[C@H](O)C[C@H]2C(=O)NCc2ccc(-c3scnc3C)cc2)C(C)(C)C)cc1 [Z12]", "inhibition at 0.1 µM (%)": 83}
{"molecule": "CCCCCCNNC(=O)c1ccc(CNC(=O)CCC(=O)N[C@H](C(=O)N2C[C@H](O)C[C@H]2C(=O)NCc2ccc(-c3scnc3C)cc2)C(C)(C)C)cc1 [Z8]", "inhibition at 0.1 µM (%)": 20}
{"molecule": "CCCCCCNNC(=O)c1ccc(CNC(=O)CCCCNc2cccc3c2C(=O)N(C2CCC(=O)NC2=O)C3=O)cc1 (stereo not drawn) [Z2]", "inhibition at 0.1 µM (%)": 62}

====

Molecular target: HDAC8 (Homo sapiens, UniProt Q9BY41)
Sequence (Q9BY41 1-377): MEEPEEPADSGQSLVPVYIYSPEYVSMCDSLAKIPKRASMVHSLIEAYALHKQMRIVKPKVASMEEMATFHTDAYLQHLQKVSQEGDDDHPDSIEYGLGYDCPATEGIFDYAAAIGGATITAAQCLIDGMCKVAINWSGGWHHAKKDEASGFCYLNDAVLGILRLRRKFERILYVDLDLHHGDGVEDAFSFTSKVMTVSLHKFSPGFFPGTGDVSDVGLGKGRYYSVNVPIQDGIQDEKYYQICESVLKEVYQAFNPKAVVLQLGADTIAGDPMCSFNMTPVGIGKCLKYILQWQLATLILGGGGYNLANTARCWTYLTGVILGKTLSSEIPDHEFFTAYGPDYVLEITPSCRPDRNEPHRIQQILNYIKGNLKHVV
Assay: HDAC8 degradation in Jurkat cells, Western blot
Conditions: Jurkat, 6 h, read-out: Degradation (%) at 100 nM (HDAC8)
We use 20% as the dividing line for inhibition at 0.1 µM: on or above the line is yes (1), below is no (0).

{"compound": "CCCCCCNNC(=O)c1ccc(CNC(=O)CCCCC(=O)N[C@H](C(=O)N2C[C@H](O)C[C@H]2C(=O)NCc2ccc(-c3scnc3C)cc2)C(C)(C)C)cc1", "measurement.target": "HDAC8 (Homo sapiens, UniProt Q9BY41)", "qualitative.label": "no (0)"}
{"compound": "CCCCCCNNC(=O)c1ccc(CNC(=O)CCCNc2cccc3c2C(=O)N(C2CCC(=O)NC2=O)C3=O)cc1 (centres unmarked)", "measurement.target": "HDAC8 (Homo sapiens, UniProt Q9BY41)", "qualitative.label": "yes (1)"}
{"compound": "CCCCCCNNC(=O)c1ccc(CNC(=O)CCCCCCCCCCC(=O)N[C@H](C(=O)N2C[C@H](O)C[C@H]2C(=O)NCc2ccc(-c3scnc3C)cc2)C(C)(C)C)cc1", "measurement.target": "HDAC8 (Homo sapiens, UniProt Q9BY41)", "qualitative.label": "yes (1)"}
{"compound": "CCCCCCNNC(=O)c1ccc(CNC(=O)CCCCCCCC(=O)N[C@H](C(=O)N2C[C@H](O)C[C@H]2C(=O)NCc2ccc(-c3scnc3C)cc2)C(C)(C)C)cc1", "measurement.target": "HDAC8 (Homo sapiens, UniProt Q9BY41)", "qualitative.label": "yes (1)"}
{"compound": "CCCCCCNNC(=O)c1ccc(CNC(=O)CCCCCCC(=O)N[C@H](C(=O)N2C[C@H](O)C[C@H]2C(=O)NCc2ccc(-c3scnc3C)cc2)C(C)(C)C)cc1", "measurement.target": "HDAC8 (Homo sapiens, UniProt Q9BY41)", "qualitative.label": "no (0)"}

====

Attribute: inhibition at 0.1 µM
Target: HDAC8 (Homo sapiens, UniProt Q9BY41)
Sequence (Q9BY41 1-377): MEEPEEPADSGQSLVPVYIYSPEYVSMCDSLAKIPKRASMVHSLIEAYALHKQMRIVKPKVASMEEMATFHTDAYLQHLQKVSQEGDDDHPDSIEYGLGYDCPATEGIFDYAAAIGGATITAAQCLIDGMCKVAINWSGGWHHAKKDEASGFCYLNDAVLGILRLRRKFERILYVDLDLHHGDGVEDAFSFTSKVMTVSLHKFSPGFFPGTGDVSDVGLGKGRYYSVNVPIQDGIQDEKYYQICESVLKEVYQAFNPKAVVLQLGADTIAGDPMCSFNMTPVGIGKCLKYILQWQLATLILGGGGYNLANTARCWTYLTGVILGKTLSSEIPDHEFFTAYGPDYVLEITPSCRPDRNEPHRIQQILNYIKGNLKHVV
Experiment: HDAC8 degradation in Jurkat cells, Western blot
Details: Jurkat, 6 h, read-out: Degradation (%) at 100 nM (HDAC8)
recorded.metric: inhibition at 0.1 µM (%)

{"compound": "CCCCCCNNC(=O)c1ccc(CNC(=O)CCCCCCNc2cccc3c2C(=O)N(C2CCC(=O)NC2=O)C3=O)cc1 (stereo not shown)", "measured.value": 90}
{"compound": "CCCCCCNNC(=O)c1ccc(CNC(=O)C2CCN(c3ccc4c(c3)C(=O)N(C3CCC(=O)NC3=O)C4=O)CC2)cc1 (stereo not shown)", "measured.value": 34}
{"compound": "CCCCCCNNC(=O)c1ccc(CNC(=O)CCCCCCCCCNc2cccc3c2C(=O)N(C2CCC(=O)NC2=O)C3=O)cc1 (stereo not shown)", "measured.value": 43}
{"compound": "CCCCCCNNC(=O)c1ccc(CNCC2CCN(c3ccc4c(c3)C(=O)N(C3CCC(=O)NC3=O)C4=O)CC2)cc1 (stereo not shown)", "measured.value": 25}
{"compound": "CCCCCCNNC(=O)c1ccc(CNC(=O)CCCCCCCNc2cccc3c2C(=O)N(C2CCC(=O)NC2=O)C3=O)cc1 (stereo not shown)", "measured.value": 43}
{"compound": "CCCCCCNNC(=O)c1cccc(NCc2ccc(C(=O)N3CCC(c4ccc(NC5CCC(=O)NC5=O)cc4)CC3)cc2)c1 (stereo not shown)", "measured.value": 13}
{"compound": "CCCCCCNNC(=O)c1ccc(CNC(=O)CCCCCNc2cccc3c2C(=O)N(C2CCC(=O)NC2=O)C3=O)cc1 (stereo not shown)", "measured.value": 44}

====

target: HDAC3/NcoR2 (Homo sapiens, UniProt O15379); assay: In vitro HDAC3 deacetylase inhibition assay; conditions: read-out: HDAC3 IC50; recombinant enzyme, Boc-Lys(Ac)-AMC
Sequence (O15379 whole entry): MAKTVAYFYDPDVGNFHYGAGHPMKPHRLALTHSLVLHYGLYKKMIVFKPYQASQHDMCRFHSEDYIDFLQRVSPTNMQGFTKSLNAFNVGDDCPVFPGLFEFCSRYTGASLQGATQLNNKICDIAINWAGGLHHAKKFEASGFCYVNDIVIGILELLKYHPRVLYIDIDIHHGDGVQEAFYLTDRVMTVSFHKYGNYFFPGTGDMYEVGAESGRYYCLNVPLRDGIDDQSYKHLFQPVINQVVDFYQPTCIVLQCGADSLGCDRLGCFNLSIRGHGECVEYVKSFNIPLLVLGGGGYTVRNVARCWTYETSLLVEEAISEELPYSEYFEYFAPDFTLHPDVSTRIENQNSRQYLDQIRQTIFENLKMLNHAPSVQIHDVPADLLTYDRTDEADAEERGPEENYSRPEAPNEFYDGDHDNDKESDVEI
Sequence (Q9Y618 395-489 partner limits assumed): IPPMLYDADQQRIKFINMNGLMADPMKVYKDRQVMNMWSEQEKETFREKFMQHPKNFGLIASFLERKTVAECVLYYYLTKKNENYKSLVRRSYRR
pIC50: −log10 of the molar value.
recorded.metric: pIC50

{"cpd.smiles": "CCCCCCNNC(=O)c1ccc(CNC(C)=O)cc1", "recorded.metric": "pIC50", "measured.value": 5.02}

Entry source: paper PMC11345830
